# target-or-test-system: UniProtKB P37058
# Sequence (whole entry): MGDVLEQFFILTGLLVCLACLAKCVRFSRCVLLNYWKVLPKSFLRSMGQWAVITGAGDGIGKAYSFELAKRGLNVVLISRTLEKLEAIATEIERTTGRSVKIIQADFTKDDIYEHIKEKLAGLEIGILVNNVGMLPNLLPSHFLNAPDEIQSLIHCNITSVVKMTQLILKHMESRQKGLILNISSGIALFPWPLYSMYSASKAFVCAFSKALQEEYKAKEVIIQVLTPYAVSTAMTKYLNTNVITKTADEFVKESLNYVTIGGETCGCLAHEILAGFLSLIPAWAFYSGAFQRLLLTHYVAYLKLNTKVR
# experimental-protocol: Inhibition of 17Beta-HSD3 expressed in intact HEK293 cells assessed as transformation of [14C]-4-androstene-3,17-dione into [14C]-testosterone in presence of NADPH at 0.1 uM after 1 hr incubation
# Assay type: cell-based

mol-smiles: C[C@]12CC[C@](O)(CN3CCN(Cc4ccccc4C(F)(F)F)CC3)C[C@@H]1CC[C@@H]1[C@@H]2CC[C@]2(C)C(=O)CC[C@@H]12
inhibition [%]: 20

mol-smiles: C[C@]12CC[C@@]3(C[C@@H]1CC[C@@H]1[C@@H]2CC[C@]2(C)C(=O)CC[C@@H]12)CN(C1CCCCC1)C(=O)O3
inhibition [%]: 29

mol-smiles: C[C@]12CC[C@@]3(C[C@@H]1CC[C@@H]1[C@@H]2CC[C@]2(C)C(=O)CC[C@@H]12)CN(CCN1CCCCC1)C(=O)O3
inhibition [%]: 10

mol-smiles: CCCN(CCN1C[C@]2(CC[C@@]3(C)[C@@H](CC[C@@H]4[C@@H]3CC[C@]3(C)C(=O)CC[C@@H]43)C2)OC1=O)C(=O)CC
inhibition [%]: 25

mol-smiles: C[C@@H]1CN(S(=O)(=O)c2cccc(C(F)(F)F)c2)[C@@H](C)CN1C[C@@]1(O)CC[C@@]2(C)[C@@H](CC[C@@H]3[C@@H]2CC[C@]2(C)C(=O)CC[C@@H]32)C1
inhibition [%]: 77

mol-smiles: Cc1cccc(S(=O)(=O)CCN2C[C@]3(CC[C@@]4(C)[C@@H](CC[C@@H]5[C@@H]4CC[C@]4(C)C(=O)CC[C@@H]54)C3)OC2=O)c1
inhibition [%]: 5

mol-smiles: C[C@]12CC[C@](O)(CN3CCN(Cc4ccc(C(F)(F)F)cc4)CC3)C[C@@H]1CC[C@@H]1[C@@H]2CC[C@]2(C)C(=O)CC[C@@H]12
inhibition [%]: 33

mol-smiles: C[C@]12CC[C@@]3(C[C@@H]1CC[C@@H]1[C@@H]2CC[C@]2(C)C(=O)CC[C@@H]12)CN(Cc1cc(C(F)(F)F)cc(C(F)(F)F)c1)C(=O)O3
inhibition [%]: 35

mol-smiles: C[C@]12CC[C@@]3(C[C@@H]1CC[C@@H]1[C@@H]2CC[C@]2(C)C(=O)CC[C@@H]12)CN(Cc1ccc(C(F)(F)F)cc1)C(=O)O3
inhibition [%]: 43

mol-smiles: C[C@@H]1CN(C(=O)c2ccccc2)[C@@H](C)CN1C[C@@]1(O)CC[C@@]2(C)[C@@H](CC[C@@H]3[C@@H]2CC[C@]2(C)C(=O)CC[C@@H]32)C1
inhibition [%]: 78

mol-smiles: CCCN(CCC)CCN1C[C@]2(CC[C@@]3(C)[C@@H](CC[C@@H]4[C@@H]3CC[C@]3(C)C(=O)CC[C@@H]43)C2)OC1=O
inhibition [%]: 8

mol-smiles: Cc1ccc(CN2C[C@]3(CC[C@@]4(C)[C@@H](CC[C@@H]5[C@@H]4CC[C@]4(C)C(=O)C(C)(C)C[C@@H]54)C3)OC2=O)cc1
inhibition [%]: 18

mol-smiles: C[C@@H]1CN(C(=O)c2cccc(C(F)(F)F)c2)[C@@H](C)CN1C[C@@]1(O)CC[C@@]2(C)[C@@H](CC[C@@H]3[C@@H]2CC[C@]2(C)C(=O)CC[C@@H]32)C1
inhibition [%]: 70

----------
# target-or-test-system: 17-beta-hydroxysteroid dehydrogenase type 3 (Homo sapiens) (UniProt P37058)
# experimental-protocol: Inhibition of 17Beta-HSD3 expressed in homogenized HEK293 cells assessed as transformation of [14C]-4-androstene-3,17-dione into [14C]-testosterone in presence of NADPH at 0.1 uM
# Assay type: cell-based
Measured inhibition, listed per entry.
measured-property: inhibition (%)

mol-smiles: CCCN(CCC)CCN1C[C@]2(CC[C@@]3(C)[C@@H](CC[C@@H]4[C@@H]3CC[C@]3(C)C(=O)CC[C@@H]43)C2)OC1=O
measured-property: inhibition
obs-value: 10
//
mol-smiles: C[C@@H]1CN(C(=O)C2CCCCC2)[C@@H](C)CN1C[C@@]1(O)CC[C@@]2(C)[C@@H](CC[C@@H]3[C@@H]2CC[C@]2(C)C(=O)CC[C@@H]32)C1
measured-property: inhibition
obs-value: 90
//
mol-smiles: C[C@]12CC[C@](O)(CN3CCN(C(=O)c4ccccc4)CC3)C[C@@H]1CC[C@@H]1[C@@H]2CC[C@]2(C)C(=O)CC[C@@H]12
measured-property: inhibition
obs-value: 76

----------
# target-or-test-system: 17-beta-hydroxysteroid dehydrogenase type 3 (Homo sapiens)
# experimental-protocol: Inhibition of 17Beta-HSD3 expressed in homogenized HEK293 cells assessed as transformation of [14C]-4-androstene-3,17-dione into [14C]-testosterone in presence of NADPH at 0.01 uM
# Format: cell-based

mol-smiles: CCN(Cc1ccccc1)C[C@@]1(O)CC[C@@]2(C)[C@@H](CC[C@@H]3[C@@H]2CC[C@]2(C)C(=O)CC[C@@H]32)C1
target-or-test-system: 17-beta-hydroxysteroid dehydrogenase type 3 (Homo sapiens)
inhibition, %: 42
--
mol-smiles: C[C@]12CC[C@](O)(CN3CCN(Cc4ccccc4C(F)(F)F)CC3)C[C@@H]1CC[C@@H]1[C@@H]2CC[C@]2(C)C(=O)CC[C@@H]12
target-or-test-system: 17-beta-hydroxysteroid dehydrogenase type 3 (Homo sapiens)
inhibition, %: 18
--
mol-smiles: C[C@@H]1CN(Cc2cccnc2)[C@@H](C)CN1C[C@@]1(O)CC[C@@]2(C)[C@@H](CC[C@@H]3[C@@H]2CC[C@]2(C)C(=O)CC[C@@H]32)C1
target-or-test-system: 17-beta-hydroxysteroid dehydrogenase type 3 (Homo sapiens)
inhibition, %: 17

----------
# target-or-test-system: 17-beta-hydroxysteroid dehydrogenase type 3 (Homo sapiens)
# experimental-protocol: Inhibition of 17Beta-HSD3 expressed in intact HEK293 cells assessed as transformation of [14C]-4-androstene-3,17-dione into [14C]-testosterone in presence of NADPH at 1 uM after 1 hr incubation
# Format: cell-based
Measured inhibition, listed per entry.

mol-smiles: C[C@]12CC[C@](O)(CN3CCN(Cc4cccc(SC(F)(F)F)c4)CC3)C[C@@H]1CC[C@@H]1[C@@H]2CC[C@]2(C)C(=O)CC[C@@H]12
inhibition (%): 62
--
mol-smiles: C[C@]12CC[C@](O)(CN3CCN(C(=O)C4CCCCC4)CC3)C[C@@H]1CC[C@@H]1[C@@H]2CC[C@]2(C)C(=O)CC[C@@H]12
inhibition (%): 70
--
mol-smiles: C[C@]12CC[C@](O)(CN3CCN(S(=O)(=O)c4cccc(C(F)(F)F)c4)CC3)C[C@@H]1CC[C@@H]1[C@@H]2CC[C@]2(C)C(=O)CC[C@@H]12
inhibition (%): 71
--
mol-smiles: CCCCN(CCCC)C[C@@]1(O)CC[C@@]2(C)[C@@H](CC[C@@H]3[C@@H]2CC[C@]2(C)C(=O)CC[C@@H]32)C1
inhibition (%): 90
--
mol-smiles: C[C@@H]1CN(Cc2cccnc2)[C@@H](C)CN1C[C@@]1(O)CC[C@@]2(C)[C@@H](CC[C@@H]3[C@@H]2CC[C@]2(C)C(=O)CC[C@@H]32)C1
inhibition (%): 58
--
mol-smiles: CCN(CC)C[C@@]1(O)CC[C@@]2(C)[C@@H](CC[C@@H]3[C@@H]2CC[C@]2(C)C(=O)CC[C@@H]32)C1
inhibition (%): 14
--
mol-smiles: C[C@@H]1CN(Cc2cccc(Cl)c2)[C@@H](C)CN1C[C@@]1(O)CC[C@@]2(C)[C@@H](CC[C@@H]3[C@@H]2CC[C@]2(C)C(=O)CC[C@@H]32)C1
inhibition (%): 55
--
mol-smiles: C[C@]12CC[C@](O)(CN3CCN(Cc4cccc(Cl)c4)CC3)C[C@@H]1CC[C@@H]1[C@@H]2CC[C@]2(C)C(=O)CC[C@@H]12
inhibition (%): 75
--
mol-smiles: C[C@]12CC[C@](O)(CN3CCN(c4ccccc4)CC3)C[C@@H]1CC[C@@H]1[C@@H]2CC[C@]2(C)C(=O)CC[C@@H]12
inhibition (%): 68
--
mol-smiles: C[C@]12CC[C@](O)(CN3CCN(Cc4ccccc4)CC3)C[C@@H]1CC[C@@H]1[C@@H]2CC[C@]2(C)C(=O)CC[C@@H]12
inhibition (%): 80
--
mol-smiles: C[C@]12CC[C@](O)(CN3CCC(N4CCCCC4)CC3)C[C@@H]1CC[C@@H]1[C@@H]2CC[C@]2(C)C(=O)CC[C@@H]12
inhibition (%): 20
--
mol-smiles: C[C@]12CC[C@](O)(CN3CCC(Cc4ccccc4)CC3)C[C@@H]1CC[C@@H]1[C@@H]2CC[C@]2(C)C(=O)CC[C@@H]12
inhibition (%): 52
--
mol-smiles: C[C@@H]1CN(Cc2cccc(SC(F)(F)F)c2)[C@@H](C)CN1C[C@@]1(O)CC[C@@]2(C)[C@@H](CC[C@@H]3[C@@H]2CC[C@]2(C)C(=O)CC[C@@H]32)C1
inhibition (%): 58
--
mol-smiles: C[C@@H]1CN(Cc2cccc(C(F)(F)F)c2)[C@@H](C)CN1C[C@@]1(O)CC[C@@]2(C)[C@@H](CC[C@@H]3[C@@H]2CC[C@]2(C)C(=O)CC[C@@H]32)C1
inhibition (%): 78
--
mol-smiles: CCN(Cc1ccccc1)C[C@@]1(O)CC[C@@]2(C)[C@@H](CC[C@@H]3[C@@H]2CC[C@]2(C)C(=O)CC[C@@H]32)C1
inhibition (%): 94
--
mol-smiles: C[C@]12CC[C@](O)(CN3CCN(Cc4cccnc4)CC3)C[C@@H]1CC[C@@H]1[C@@H]2CC[C@]2(C)C(=O)CC[C@@H]12
inhibition (%): 63
--
mol-smiles: C[C@]12CC[C@](O)(CN3CCCCC3)C[C@@H]1CC[C@@H]1[C@@H]2CC[C@]2(C)C(=O)CC[C@@H]12
inhibition (%): 23
--
mol-smiles: CN(Cc1ccccc1)C[C@@]1(O)CC[C@@]2(C)[C@@H](CC[C@@H]3[C@@H]2CC[C@]2(C)C(=O)CC[C@@H]32)C1
inhibition (%): 92

This collection of values is drawn from ChEMBL document CHEMBL1811881.
